target: soluble histidine-tagged form of human TLR4/MD2 complex (human, UniProt Q9Y6Y9 19-160); assay: competitive ELISA; 15C1 reference EC50 divided by variant EC50
Sequence (Q9Y6Y9 19-160, one chain of several): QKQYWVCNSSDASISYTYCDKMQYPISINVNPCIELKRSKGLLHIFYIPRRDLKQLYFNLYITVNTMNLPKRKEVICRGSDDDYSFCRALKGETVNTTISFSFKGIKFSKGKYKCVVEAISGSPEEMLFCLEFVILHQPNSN
Readings of Relative binding potency increase for the listed binders

Past entries and their recorded results:
Binder | Relative binding potency increase
1E11.E3 antibody (IgG1) (antibody, V domains shown) VH: QVQLQESGPGLVKPSDTLSLTCAVSGYSITGGYSWHWIRQPPGKGLEWMGYIHYSGYTDFNPSLKTRITISRDTSKNQFSLKLSSVTAVDTAVYYCARKDSGNYFPYWGQGTLVTVSS VL: EIVLTQSPDFQSVTPKEKVTITCRASQSISDHLHWYQQKPDQSPKLLIKYASHAISGVPSRFSGSGSGTDFTLTINSLEAEDAATYYCQQGYDFPLTFGGGTKVEIK | 5 fold
1E11.C6 antibody (IgG1) (antibody, V domains shown) VH: QVQLQESGPGLVKPSDTLSLTCAVSGYPIGGGYSWHWIRQPPGKGLEWMGYIHYSGYTDFNPSLKTRITISRDTSKNQFSLKLSSVTAVDTAVYYCARKDSGNYFPYWGQGTLVTVSS VL: EIVLTQSPDFQSVTPKEKVTITCRASQSISDHLHWYQQKPDQSPKLLIKYASHAISGVPSRFSGSGSGTDFTLTINSLEAEDAATYYCQQGHSFPLTFGGGTKVEIK | 10 fold

Next, consider the following binder.
In: I am curious: what Relative binding potency increase value has been reported for 1E11.E2 antibody (IgG1) (antibody, V domains shown) VH: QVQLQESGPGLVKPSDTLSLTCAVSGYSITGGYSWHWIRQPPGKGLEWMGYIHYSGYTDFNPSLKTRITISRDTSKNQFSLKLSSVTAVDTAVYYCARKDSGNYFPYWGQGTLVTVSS VL: EIVLTQSPDFQSVTPKEKVTITCRASQSISDHLHWYQQKPDQSPKLLIKYASHAISGVPSRFSGSGSGTDFTLTINSLEAEDAATYYCQQGYDEPFTFGGGTKVEIK ?
Out: 2 fold
